For each record, write down the corresponding pKi.
measured_target: isolated recombinant JAK2 kinase domain (Homo sapiens)
Construct: The activity of the isolated recombinant JAK1 and JAK2 kinase domain was measured
test: JAK2 enzyme assay (Caliper LabChip, Ki)
Format: biochemical
condition_set: 25 μM ATP
As a rule, pKi stands for the negative log10 of the concentration, concentration in M.

Let me know recorded pKi for "CCN1CCN(C(=O)Cn2cc(NC(=O)c3cnn4cccnc34)c(-c3cc(SC(C)C)ccc3OC(F)F)n2)CC1" , thanks.
8.89

Let me know recorded pKi for "CC(C)Sc1ccc(OC(F)F)c(-c2nn(CC(=O)N3CCC(N4CCOCC4)CC3)cc2NC(=O)c2cnn3cccnc23)c1" , thanks.
9.07

Let me know recorded pKi for "CC(C)Sc1ccc(OC(F)F)c(-c2nn(CC(=O)N3CCN(CCOCCO)CC3)cc2NC(=O)c2cnn3cccnc23)c1" , thanks.
9.07

Let me know recorded pKi for "CSc1ccc(OC(F)F)c(-c2nn(CC(=O)N3CCC(N4CCN(C5CCOCC5)CC4)CC3)cc2NC(=O)c2cnn3cccnc23)c1" , thanks.
9.09

Let me know recorded pKi for "CSc1ccc(OC(F)F)c(-c2nn(CC(=O)N3CCC(N4CCC[C@H](C#N)C4)CC3)cc2NC(=O)c2cnn3cccnc23)c1" , thanks.
9.28

Let me know recorded pKi for "CC(C)Sc1ccc(OC(F)F)c(-c2nn(CC(=O)N3CCC(N4CCOC[C@@H]4CO)CC3)cc2NC(=O)c2cnn3cccnc23)c1" , thanks.
9.00

---

measured_target: isolated recombinant JAK2 kinase domain (Homo sapiens, UniProt O60674)
Construct: The activity of the isolated recombinant JAK1 and JAK2 kinase domain was measured
Sequence (O60674 849-1124 limits assumed): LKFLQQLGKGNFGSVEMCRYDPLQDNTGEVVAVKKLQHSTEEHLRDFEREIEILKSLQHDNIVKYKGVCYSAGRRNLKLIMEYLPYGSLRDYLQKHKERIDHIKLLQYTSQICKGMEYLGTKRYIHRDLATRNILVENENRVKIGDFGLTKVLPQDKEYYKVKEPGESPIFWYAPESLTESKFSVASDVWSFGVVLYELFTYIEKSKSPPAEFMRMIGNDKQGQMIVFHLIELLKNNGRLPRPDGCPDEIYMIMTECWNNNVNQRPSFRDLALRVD
test: JAK2 enzyme assay (Caliper LabChip, Ki)
condition_set: 25 μM ATP
Label key: Criterion met means Ki under 400 pM; Criterion not met means Ki of 400 pM or more.

Problem: For the compound CSc1ccc(OC(F)F)c(-c2nn(CC(=O)N3CC4CCCN(C)C4C3)cc2NC(=O)c2cnn3cccnc23)c1 (stereo not shown) , is Ki under 400 pM?
Criterion met

Problem: For the compound "CC(C)Sc1ccc(OC(F)F)c(-c2nn(CC(=O)N3CCN(CCCO)CC3)cc2NC(=O)c2cnn3cccnc23)c1" , is Ki under 400 pM?
Criterion not met

Problem: For the compound "CSc1ccc(OC(F)F)c(-c2nn(CC(=O)N3CCC(CN4C[C@@H](C)N(CC(=O)N(C)C)C[C@@H]4C)CC3)cc2NC(=O)c2cnn3cccnc23)c1" , is Ki under 400 pM?
Criterion not met

Problem: For the compound "CSc1ccc(OC(F)F)c(-c2nn(CC(=O)N3CCC(N(C)CCC#N)CC3)cc2NC(=O)c2cnn3cccnc23)c1" , is Ki under 400 pM?
Criterion not met

Problem: For the compound "CSc1ccc(OC(F)F)c(-c2nn(C[C@H]3CCCN3C)cc2NC(=O)c2cnn3cccnc23)c1" , is Ki under 400 pM?
Criterion not met

Problem: For the compound "CC(C)Sc1ccc(OC(F)F)c(-c2nn(CC(=O)N3CCC(N4CCOC[C@H]4CO)CC3)cc2NC(=O)c2cnn3cccnc23)c1" , is Ki under 400 pM?
Criterion not met

---

measured_target: isolated recombinant JAK1 kinase domain (Homo sapiens)
Construct: The activity of the isolated recombinant JAK1 and JAK2 kinase domain was measured
test: JAK1 enzyme assay (Caliper LabChip, Ki)
Format: biochemical
condition_set: recombinant JAK1 kinase domain, 25 μM ATP
Label key: Criterion met means Ki under 0.6 nM; Criterion not met means Ki of 0.6 nM or more.

Problem: For the compound CSc1ccc(OC(F)F)c(-c2nn(CC(=O)N3CC4CCN(C)C4C3)cc2NC(=O)c2cnn3cccnc23)c1 (centres unmarked) [Example 34] , is Ki under 0.6 nM?
Criterion met

Problem: For the compound CNC(=O)[C@@H]1CCCN1CC1CCN(C(=O)Cn2cc(NC(=O)c3cnn4cccnc34)c(-c3cc(SC)ccc3OC(F)F)n2)CC1 [Example 44] , is Ki under 0.6 nM?
Criterion met

Problem: For the compound Cn1cc(NC(=O)c2cnn3cccnc23)c(-c2cc(SC(CF)CF)ccc2OC(F)F)n1 [Example 159] , is Ki under 0.6 nM?
Criterion met

Problem: For the compound CCSc1ccc(OC(F)F)c(-c2n[nH]cc2NC(=O)c2cnn3cccnc23)c1 [Example 192] , is Ki under 0.6 nM?
Criterion met

Problem: For the compound CSc1ccc(OC(F)F)c(-c2nn(CC(=O)N3CCC(N(C)CC(=O)N4CCC4)CC3)cc2NC(=O)c2cnn3cccnc23)c1 [Example 22] , is Ki under 0.6 nM?
Criterion met

Problem: For the compound CSc1ccc(OC(F)F)c(-c2nn(C3(CC#N)CNC3)cc2NC(=O)c2cnn3cccnc23)c1 [Example 77] , is Ki under 0.6 nM?
Criterion met

Problem: For the compound CC(C)Sc1ccc(OC(F)F)c(-c2nn(CC(=O)N3CCC(NCC4(C#N)CC4)CC3)cc2NC(=O)c2cnn3cccnc23)c1 [Example 115] , is Ki under 0.6 nM?
Criterion not met

Problem: For the compound CSc1ccc(OC(F)F)c(-c2nn(CC(=O)N3CCC(NCCCC#N)CC3)cc2NC(=O)c2cnn3cccnc23)c1 [Example 64] , is Ki under 0.6 nM?
Criterion met

Problem: For the compound O=C(Nc1cn(CC(=O)N2CCN(C3CCOCC3)CC2)nc1-c1cc(SC2CC2)ccc1OC(F)F)c1cnn2cccnc12 [Example 168] , is Ki under 0.6 nM?
Criterion met

Problem: For the compound CSc1ccc(OC(F)F)c(-c2nn(C3(CC#N)CN(C(=O)OC(C)(C)C)C3)cc2NC(=O)c2cnn3cccnc23)c1 [Example 78] , is Ki under 0.6 nM?
Criterion not met

Problem: For the compound CC(C)Sc1ccc(OC(F)F)c(-c2nn(CC(=O)N3CCC(C)(N4CCOCC4)CC3)cc2NC(=O)c2cnn3cccnc23)c1 [Example 132] , is Ki under 0.6 nM?
Criterion not met

Problem: For the compound N#CC1(CNC2CCN(C(=O)Cn3cc(NC(=O)c4cnn5cccnc45)c(-c4cc(SC5COC5)ccc4OC(F)F)n3)CC2)CC1 [Example 189] , is Ki under 0.6 nM?
Criterion not met

Problem: For the compound CSc1ccc(OC(F)F)c(-c2nn(CCN[C@@H]3CCCOC3)cc2NC(=O)c2cnn3cccnc23)c1 [Example 38] , is Ki under 0.6 nM?
Criterion met

---

measured_target: isolated recombinant JAK1 kinase domain (Homo sapiens, UniProt P23458)
Construct: The activity of the isolated recombinant JAK1 and JAK2 kinase domain was measured
Sequence (P23458 875-1153 limits assumed): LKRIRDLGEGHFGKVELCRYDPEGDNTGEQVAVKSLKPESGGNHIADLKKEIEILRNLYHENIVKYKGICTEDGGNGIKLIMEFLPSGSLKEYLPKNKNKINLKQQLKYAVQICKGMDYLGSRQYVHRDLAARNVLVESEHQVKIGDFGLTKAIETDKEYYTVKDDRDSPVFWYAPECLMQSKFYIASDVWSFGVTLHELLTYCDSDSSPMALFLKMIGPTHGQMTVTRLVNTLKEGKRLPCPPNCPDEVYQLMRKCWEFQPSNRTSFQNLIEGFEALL
test: JAK1 enzyme assay (Caliper LabChip, Ki)
Format: biochemical
condition_set: recombinant JAK1 kinase domain, 25 μM ATP
For each record, write down the corresponding Ki.
Please reply with the bare figure in nM and do not write the unit itself.

State, for isolated recombinant JAK1 kinase domain (Homo sapiens, UniProt P23458), measured Ki of the compound listed here: CSc1ccc(OC(F)F)c(-c2nn(CC(=O)N3CC4CCCNC4C3)cc2NC(=O)c2cnn3cccnc23)c1 (centres unmarked)
0.39

State, for isolated recombinant JAK1 kinase domain (Homo sapiens, UniProt P23458), measured Ki of the compound listed here: "O=C(Nc1c[nH]nc1-c1cc(SC2CC2)ccc1OC(F)F)c1cnn2cccnc12"
0.098

State, for isolated recombinant JAK1 kinase domain (Homo sapiens, UniProt P23458), measured Ki of the compound listed here: "CSc1ccc(OC(F)F)c(-c2nn(CCN[C@@H]3CCOC3)cc2NC(=O)c2cnn3cccnc23)c1"
0.32

State, for isolated recombinant JAK1 kinase domain (Homo sapiens, UniProt P23458), measured Ki of the compound listed here: "CSc1ccc(OC(F)F)c(-c2nn(CC(=O)N3CCC(CN4CCOCC4)CC3)cc2NC(=O)c2cnn3cccnc23)c1"
0.3

State, for isolated recombinant JAK1 kinase domain (Homo sapiens, UniProt P23458), measured Ki of the compound listed here: "CSc1ccc(OC(F)F)c(-c2nn(CC(=O)N3CCN(CC4CCN(CC(=O)N5CCOCC5)CC4)CC3)cc2NC(=O)c2cnn3cccnc23)c1"
0.44

State, for isolated recombinant JAK1 kinase domain (Homo sapiens, UniProt P23458), measured Ki of the compound listed here: "CSc1ccc(OC(F)F)c(-c2nn(CC(=O)N3CCC(CN4CCN(CC(=O)N(C)C)[C@H](C)C4)CC3)cc2NC(=O)c2cnn3cccnc23)c1"
0.38

State, for isolated recombinant JAK1 kinase domain (Homo sapiens, UniProt P23458), measured Ki of the compound listed here: "O=C(Nc1cn(CC(=O)N2CCC(CN3CCOCC3)CC2)nc1-c1cc(SC2CC2)ccc1OC(F)F)c1cnn2cccnc12"
0.42

State, for isolated recombinant JAK1 kinase domain (Homo sapiens, UniProt P23458), measured Ki of the compound listed here: "COCC(=O)N1CCN(CC2CCN(C(=O)Cn3cc(NC(=O)c4cnn5cccnc45)c(-c4cc(SC)ccc4OC(F)F)n3)CC2)CC1"
0.29

State, for isolated recombinant JAK1 kinase domain (Homo sapiens, UniProt P23458), measured Ki of the compound listed here: "CSc1ccc(OC(F)F)c(-c2nn(CC(=O)N3CCC(CN4CCN(CC(=O)N(C)C)C[C@H]4C)CC3)cc2NC(=O)c2cnn3cccnc23)c1"
0.39

State, for isolated recombinant JAK1 kinase domain (Homo sapiens, UniProt P23458), measured Ki of the compound listed here: "CSc1ccc(OC(F)F)c(-c2nn(CC(=O)N3CCC(CN4CCN(C(=O)CN(C)C)CC4)CC3)cc2NC(=O)c2cnn3cccnc23)c1"
0.3

State, for isolated recombinant JAK1 kinase domain (Homo sapiens, UniProt P23458), measured Ki of the compound listed here: "CSc1ccc(OC(F)F)c(-c2nn(CCNC3COC3)cc2NC(=O)c2cnn3cccnc23)c1"
0.36

State, for isolated recombinant JAK1 kinase domain (Homo sapiens, UniProt P23458), measured Ki of the compound listed here: "CSc1ccc(OC(F)F)c(-c2nn(CC(=O)N3CCC(N4CCOC[C@H]4C)CC3)cc2NC(=O)c2cnn3cccnc23)c1"
0.26

State, for isolated recombinant JAK1 kinase domain (Homo sapiens, UniProt P23458), measured Ki of the compound listed here: "CC(C)Sc1ccc(OC(F)F)c(-c2nn(CC(=O)N3CCN(C4CCOCC4)CC3)cc2NC(=O)c2cnn3cccnc23)c1"
0.47

State, for isolated recombinant JAK1 kinase domain (Homo sapiens, UniProt P23458), measured Ki of the compound listed here: "CSc1ccc(OC(F)F)c(-c2nn(CC(=O)N3CCC(N(C)[C@H]4CCOC4)CC3)cc2NC(=O)c2cnn3cccnc23)c1"
0.28

State, for isolated recombinant JAK1 kinase domain (Homo sapiens, UniProt P23458), measured Ki of the compound listed here: "CSc1ccc(OC(F)F)c(-c2nn(CC(=O)N3CCC(N4CCC[C@H]4C(=O)N(C)C)CC3)cc2NC(=O)c2cnn3cccnc23)c1"
0.52

State, for isolated recombinant JAK1 kinase domain (Homo sapiens, UniProt P23458), measured Ki of the compound listed here: "CC(C)Sc1ccc(OC(F)F)c(-c2nn(CCN)cc2NC(=O)c2cnn3cccnc23)c1"
0.39

State, for isolated recombinant JAK1 kinase domain (Homo sapiens, UniProt P23458), measured Ki of the compound listed here: "CSc1ccc(OC(F)F)c(-c2nn(CC(=O)N3CCC(N4CCC[C@H](C#N)C4)CC3)cc2NC(=O)c2cnn3cccnc23)c1"
0.27

State, for isolated recombinant JAK1 kinase domain (Homo sapiens, UniProt P23458), measured Ki of the compound listed here: "CC(C)Sc1ccc(OC(F)F)c(-c2nn(CC(=O)N3CCC(N4CCO[C@@H](CO)C4)CC3)cc2NC(=O)c2cnn3cccnc23)c1"
0.31

State, for isolated recombinant JAK1 kinase domain (Homo sapiens, UniProt P23458), measured Ki of the compound listed here: "O=C(Nc1cn(CC(=O)N2CCN(C3CCOCC3)CC2)nc1-c1cc(SC2COC2)ccc1OC(F)F)c1cnn2cccnc12"
0.56

State, for isolated recombinant JAK1 kinase domain (Homo sapiens, UniProt P23458), measured Ki of the compound listed here: "CSc1ccc(OC(F)F)c(-c2nn(CC(=O)N3CCN(C4CCOCC4)CC3)cc2NC(=O)c2cnn3cccnc23)c1"
0.27

State, for isolated recombinant JAK1 kinase domain (Homo sapiens, UniProt P23458), measured Ki of the compound listed here: "CC(=O)N1CCN(CC2CCN(C(=O)Cn3cc(NC(=O)c4cnn5cccnc45)c(-c4cc(SC5CC5)ccc4OC(F)F)n3)CC2)CC1"
0.45

State, for isolated recombinant JAK1 kinase domain (Homo sapiens, UniProt P23458), measured Ki of the compound listed here: CSc1ccc(OC(F)F)c(-c2nn(CC(=O)N3CCC(N4CCC(C#N)C4)CC3)cc2NC(=O)c2cnn3cccnc23)c1 (centres unmarked)
0.23

State, for isolated recombinant JAK1 kinase domain (Homo sapiens, UniProt P23458), measured Ki of the compound listed here: "CC(C)Sc1ccc(OC(F)F)c(-c2nn(CC(=O)N3CCC(N(C)CC(=O)N(C)C)CC3)cc2NC(=O)c2cnn3cccnc23)c1"
0.43

State, for isolated recombinant JAK1 kinase domain (Homo sapiens, UniProt P23458), measured Ki of the compound listed here: "O=C(Nc1cn(CC(=O)N2CCC(N3CCOCC3)CC2)nc1-c1cc(SC2COC2)ccc1OC(F)F)c1cnn2cccnc12"
0.92

State, for isolated recombinant JAK1 kinase domain (Homo sapiens, UniProt P23458), measured Ki of the compound listed here: "CC(C)Sc1ccc(OC(F)F)c(-c2nn(CC(=O)N3CCC(N(C)CC4OCCO4)CC3)cc2NC(=O)c2cnn3cccnc23)c1"
0.79

State, for isolated recombinant JAK1 kinase domain (Homo sapiens, UniProt P23458), measured Ki of the compound listed here: "CSc1ccc(OC(F)F)c(-c2nn(CC(=O)N3CCC(N4CCN(C5CCOCC5)CC4)CC3)cc2NC(=O)c2cnn3cccnc23)c1"
0.42
